IC50 values for the compounds below.
Experiment: DPPH antioxidant (free radical scavenging) assay
Type: biochemical
Details: duplicate, 5 concentrations, read at 517 nm; read-out: IC50 (DPPH assay, anti-oxidant activity)
# do not omit the unit; it follows the number

- Compound: "CC1=NN(c2ccccc2)C(=O)C1CCCCCCCCCC[P+](c1ccccc1)(c1ccccc1)c1ccccc1.[Br-] (stereo not drawn) [NWD-19]"
  Assay endpoint: "IC50"
  Observed result: "2100 nM"
- Compound: "CC1=NN(c2ccccc2)C(=O)C1CCCC[P+](c1ccccc1)(c1ccccc1)c1ccccc1 (stereo not drawn) [NWD-15]"
  Assay endpoint: "IC50"
  Observed result: "2300 nM"

Now let's try a different one.
Query block: Which IC50 value belongs to O=c1cc(CCCC[P+](c2ccccc2)(c2ccccc2)c2ccccc2)[nH]n1-c1ccccc1 [NWD-14] ?
Result block: 2800 nM

###

Test system: CT-26 cells
Assay: Cytotoxicity in CT-26 cancer cell line (cell titer glo 2.0)
Type: cell-based
Details: Mus musculus, CT26; overnight incubation, triplicate, 6 concentrations; read-out: EC50 (percent survival, CT-26 cells)
Assay endpoint: EC50 (µM)
// note: answer is a bare numeric in µM

Query block: Which measured EC50 value corresponds to CC1=NN(c2ccccc2)C(=O)C1CCCCCCCCCC[P+](c1ccccc1)(c1ccccc1)c1ccccc1.[Br-] (stereo not shown) ?
Result block: 9.6
